biological target: human CD3 (human, UniProt P07766 23-207; P04234 22-171; P09693 23-182); test: cell-based or functional assay
Sequence (P07766 23-207, chain 1 of 3): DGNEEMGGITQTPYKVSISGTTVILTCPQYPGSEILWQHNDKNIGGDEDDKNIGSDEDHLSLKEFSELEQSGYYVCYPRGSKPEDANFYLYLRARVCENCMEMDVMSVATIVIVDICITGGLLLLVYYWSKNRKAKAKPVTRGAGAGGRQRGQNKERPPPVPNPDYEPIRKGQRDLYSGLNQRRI
Sequence (P04234 22-171, chain 2 of 3): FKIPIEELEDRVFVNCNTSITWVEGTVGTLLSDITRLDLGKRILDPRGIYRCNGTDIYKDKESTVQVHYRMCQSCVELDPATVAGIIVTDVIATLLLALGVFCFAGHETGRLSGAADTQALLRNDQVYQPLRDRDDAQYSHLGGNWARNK
Sequence (P09693 23-182, chain 3 of 3): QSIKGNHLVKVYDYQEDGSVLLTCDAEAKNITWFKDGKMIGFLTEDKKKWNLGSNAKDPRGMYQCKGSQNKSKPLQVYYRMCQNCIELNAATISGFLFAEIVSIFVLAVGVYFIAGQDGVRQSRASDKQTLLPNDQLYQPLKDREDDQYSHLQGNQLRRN
Measurement name: CD8 EC50 (nM); CD69/CD25 on human T cells, plate-coated antibody
Lab book: enter the figure in nM, no units written.

Lookup: Suppose we examine the binder mAb 121 (antibody, V domains shown) VH: EVQLVESGGGLVQPGRSLRLSCATSGFTFADYTMHWVRQAPGKGLEWVSGISWNSGSIDYADSVKGRFTISRDNAKKSLYLQMNSLRAEDTALYFCAKDSSGYGHYYFYYLDVWGKGTTVTVSS VL: EIVMTQSPGTLSVSPGKRATLSCRASQSVSSNLAWYQQKPGQGPRLLIYSTSTRATGIPARFSGSGSGTEFTLTISSLQSEDSAVYYCQHYNNWPHFGQGTRLEIK ; what CD8 EC50 (nM); CD69/CD25 on human T cells, plate-coated antibody value has been reported?
Found: 12.3

Lookup: Suppose we examine the binder mAb 95 (antibody, V domains shown) VH: QAHLVESGGGVVQPGRSLRLSCSASGFTFSGYGMHWVRQAPGKGLEWVALIYFDGRNKYYADSVKGRFTISRDNSKNTLYLQMNSLRAEDTAVYYCARGGGYNWFDPWGQGTLVTVSS VL: DIQMTQSPSSLSASVGDRVTITCRASQSINNYLSWYQQKPGKAPKLLIYLASNLQSGVPSRFSGSGSGTDFTLTISSLQPEDFATYYCQLSYRSPFTFGPGTKVDVK ; what CD8 EC50 (nM); CD69/CD25 on human T cells, plate-coated antibody value has been reported?
Found: 15.5
